# target.under.test: T1, TP53 wild-type peptide on HLA-A*02:01 (human)
# T1 peptide: HMTEVVRRC
# assay.info: cytokine release
measured.quantity: binding result

{"columns": ["binder", "val"],
 "data": [
  ["TCR 8A (TCR, V domains shown) Valpha: AQSVAQPEDQVNVAEGNPLTVKCTYSVSGNPYLFWYVQYPNRGLQFLLKYITGDNLVKGSYGFEAEFNKSQTSFHLKKPSALVSDSALYFCAVRAPGNTPLVFGKGTRLSVIA Vbeta: DTAVSQTPKYLVTQMGNDKSIKCEQNLGHDTMYWYKQDSKKFLKIMFSYNNKELIINETVPNRFSPKSPDKAHLNLHINSLELGDSAVYFCASSQDLGFDEKLFFGSGTQLSVL", "no recognition"],
  ["TCR 1A (TCR, V domains shown) Valpha: SQQGEEDPQALSIQEGENATMNCSYKTSINNLQWYRQNSGRGLVHLILIRSNEREKHSGRLRVTLDTSKKSSSLLITASRAADTASYFCATGSNYGGSQGNLIFGKGTKLSVKP Vbeta: EAGVAQSPRYKIIEKRQSVAFWCNPISGHATLYWYQQILGQGPKLLIQFQNNGVVDDSQLPKDRFSAERLKGVDSTLKIQPAKLEDSAVYLCASSLDYGSSYEQYFGPGTRLTVT", "no recognition"]
]}
